subject of test: Yes (Homo sapiens, UniProt P07947)
Sequence (P07947 whole entry, species assumed): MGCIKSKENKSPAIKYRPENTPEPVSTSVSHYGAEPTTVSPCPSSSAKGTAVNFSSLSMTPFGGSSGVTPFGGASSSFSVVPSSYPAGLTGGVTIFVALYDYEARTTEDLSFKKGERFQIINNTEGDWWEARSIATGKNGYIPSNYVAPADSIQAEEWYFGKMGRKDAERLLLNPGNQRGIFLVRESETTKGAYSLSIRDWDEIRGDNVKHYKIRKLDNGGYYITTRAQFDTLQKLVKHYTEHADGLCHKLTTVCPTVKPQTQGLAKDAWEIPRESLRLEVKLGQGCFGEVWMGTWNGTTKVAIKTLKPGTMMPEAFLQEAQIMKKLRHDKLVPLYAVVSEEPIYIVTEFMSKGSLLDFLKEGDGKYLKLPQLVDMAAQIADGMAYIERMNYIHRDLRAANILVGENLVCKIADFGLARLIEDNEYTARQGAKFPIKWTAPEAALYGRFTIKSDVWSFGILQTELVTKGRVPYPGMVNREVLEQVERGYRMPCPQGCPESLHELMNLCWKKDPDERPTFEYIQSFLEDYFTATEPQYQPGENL
measured metric: pIC50
Here pIC50 is given on a logarithmic scale as minus log10 of the concentration in mol/L.

Query: Item COc1cc2c(Nc3ccc(Cl)c(Cl)c3F)ncnc2cc1OC[C@@H]1C[C@@H]2CN(C)C[C@@H]2C1 has what recorded pIC50?
Response: 8.96

----------
protocol notes: in vivo
Design: species or system mice, rats, dogs, and monkeys
recorded conditions: dog, po
measured metric: bioavailability

Query: What does the data say about its bioavailability? Entry: COc1cc2c(Nc3ccc(Cl)c(Cl)c3F)ncnc2cc1OC[C@@H]1C[C@@H]2CN(C)C[C@@H]2C1
Response: 63 to 74%
